experimental.system: AAK1 (amino acids T27-A365) (Homo sapiens (Human))
Sequence (Q2M2I8 27-365): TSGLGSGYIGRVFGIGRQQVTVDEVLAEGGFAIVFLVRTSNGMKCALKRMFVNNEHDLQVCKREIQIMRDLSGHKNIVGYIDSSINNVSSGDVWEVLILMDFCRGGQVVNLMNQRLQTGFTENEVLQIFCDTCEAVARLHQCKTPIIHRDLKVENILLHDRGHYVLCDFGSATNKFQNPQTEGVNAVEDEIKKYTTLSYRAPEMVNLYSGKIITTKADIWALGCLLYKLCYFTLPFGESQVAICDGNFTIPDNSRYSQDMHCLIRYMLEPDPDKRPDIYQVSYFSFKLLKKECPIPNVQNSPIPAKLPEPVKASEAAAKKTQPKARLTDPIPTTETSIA
test.name: AAK1 pSENs assay
Assay type: biochemical
cond: ratio of AAK1 pSENs activity to GAK pSENs activity
Protocol: The recombinant proteins were independently expressed in Esherichia coli BL21(DE3) cells cultured in Luria-Bertani (LB) medium until OD600 reached 0.6-0.8, then cooled to 15° C., and supplemented with 0.5 mM isopropyl 1-thio-D-galactopyranoside (IPTG) induce protein expression 16 h. […]
measured.endpoint: AAK1:GAK pSENs Selectivity

CN1C[C@@H](OC(=O)N2CCN(c3nc4c(-c5cccnc5OC5CC5)cnn4cc3F)CC2)CC1=O : A (A: ≤0.015)
CN1C[C@@H](OC(=O)N2CCN(c3nc4c(-c5cccnc5OC5CCCCC5)cnn4cc3F)CC2)CC1=O : C (C: 0.076-0.15)
CC(C)(C)OC(=O)N1CC(Nc2ncccc2-c2cnn3ccc(N4CCN(C(=O)O[C@@H]5CNC(=O)C5)CC4)nc23)C1 : D (D: 0.16-1.00)
COc1ncccc1-c1cnn2ccc(N3CCN(C(=O)O[C@H]4CO[C@H]5OCC[C@H]54)CC3)nc12 : A (A: ≤0.015)
CC(C)Oc1ncccc1-c1cnn2ccc(N3CCN(C(=O)O[C@@]4(C)CCNC4)CC3)nc12 : B (B: 0.016-0.075)

Q. Which measured AAK1:GAK pSENs Selectivity value corresponds to CN(C)CCN1CC[C@@](C)(OC(=O)N2CCN(c3ccn4ncc(-c5cccnc5OC5CC5)c4n3)CC2)C1 ?
A. A (A: ≤0.015)

Q. Recorded AAK1:GAK pSENs Selectivity of CN1C[C@@H](OC(=O)N2CCN(c3ccn4ncc(-c5cccnc5OC5CC5)c4n3)CC2)CC1=O , please.
A. A (A: ≤0.015)

Q. Using the record for NC(=O)[C@@H]1CN(c2ccn3ncc(-c4cccnc4OC4CC4)c3n2)CCN1C(=O)O[C@@H]1CNC(=O)C1 , report its AAK1:GAK pSENs Selectivity.
A. B (B: 0.016-0.075)

Q. Requested field: AAK1:GAK pSENs Selectivity. Item: O=C(O[C@H]1CO[C@H]2OCC[C@H]21)N1CCN(c2ccn3ncc(-c4cnccn4)c3n2)CC1
A. D (D: 0.16-1.00)

Q. Param item = CN(CCN1C[C@@H](OC(=O)N2CCN(c3ccn4ncc(-c5cccnc5OC5CC5)c4n3)CC2)CC1=O)C(=O)OC(C)(C)C ; retrieve measured AAK1:GAK pSENs Selectivity.
A. B (B: 0.016-0.075)

Q. Which value of AAK1:GAK pSENs Selectivity has been reported for COC(=O)N1CC(Oc2ncccc2-c2cnn3ccc(N4CCN(C(=O)O[C@@H]5CNC(=O)C5)CC4)nc23)C1 in the records?
A. A (A: ≤0.015)

Q. Request the reported AAK1:GAK pSENs Selectivity associated with CC(C)(C)OC(=O)NCCNc1nc2c(-c3cccnc3OC3CC3)cnn2cc1F
A. C (C: 0.076-0.15)

###

Below, each entry is listed alongside its reported IC50.
experimental.system: BIKE (amino acids S38-E345) (K320A, K321A) (Homo sapiens (Human), UniProt Q9NSY1, K320A/K321A)
Sequence (Q9NSY1 38-345 K320A/K321A): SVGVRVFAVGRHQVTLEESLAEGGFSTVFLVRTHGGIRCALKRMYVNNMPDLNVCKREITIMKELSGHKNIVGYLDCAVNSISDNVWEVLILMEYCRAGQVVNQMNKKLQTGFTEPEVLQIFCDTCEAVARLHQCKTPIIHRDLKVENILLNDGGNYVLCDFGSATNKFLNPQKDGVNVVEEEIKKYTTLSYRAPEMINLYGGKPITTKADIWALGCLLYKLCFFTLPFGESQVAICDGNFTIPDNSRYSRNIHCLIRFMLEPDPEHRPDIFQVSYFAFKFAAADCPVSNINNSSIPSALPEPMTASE
test.name: BIKE pSENs assay
Type: biochemical

Cc1cn2ncc(-c3cccnc3OC3CC3)c2nc1N1CCN(C(=O)O[C@H]2CC(=O)N(C)C2)CC1 [Compound I-111] : > 1500 nM
CN(C)CCN1CC[C@@](C)(OC(=O)N2CCN(c3ccn4ncc(-c5cccnc5OC5CC5)c4n3)CC2)C1 [Compound I-53] : 501 to 1500 nM
O=C1NCC[C@H]1OC(=O)N1CCN(c2ccn3ncc(-c4cccnc4OC4CC4)c3n2)CC1 [Compound I-23] : > 1500 nM
O=C(O[C@H]1CO[C@H]2OCC[C@H]21)N1CCN(c2ccn3ncc(-c4ccncn4)c3n2)CC1 [Compound I-67] : > 1500 nM
O=C(O[C@@H]1CC(=O)N(C2CCNCC2)C1)N1CCN(c2ccn3ncc(-c4cccnc4OC4CC4)c3n2)CC1 [Compound I-33] : > 1500 nM

Q. Return reported IC50; argument: COC(=O)N1CC(Oc2ncccc2-c2cnn3ccc(N4CCN(C(=O)O[C@@H]5CC(=O)N(C6COC6)C5)CC4)nc23)C1 [Compound I-85]
A. > 1500 nM

Q. Could you tell me which IC50 is on file for O=C1C[C@H](OC(=O)N[C@H]2CCN(c3ccn4ncc(-c5cccnc5OC5CC5)c4n3)C2)CN1 [Compound I-55] ?
A. > 1500 nM

Source of measurements: patent US20250270222A1
